The measurements presented in this section are drawn from paper PMC3384716.

# key: entry, value: Reporter Assay (% Activity) ER
Target: ER (Homo sapiens, UniProt P03372)
Sequence (P03372 1-595): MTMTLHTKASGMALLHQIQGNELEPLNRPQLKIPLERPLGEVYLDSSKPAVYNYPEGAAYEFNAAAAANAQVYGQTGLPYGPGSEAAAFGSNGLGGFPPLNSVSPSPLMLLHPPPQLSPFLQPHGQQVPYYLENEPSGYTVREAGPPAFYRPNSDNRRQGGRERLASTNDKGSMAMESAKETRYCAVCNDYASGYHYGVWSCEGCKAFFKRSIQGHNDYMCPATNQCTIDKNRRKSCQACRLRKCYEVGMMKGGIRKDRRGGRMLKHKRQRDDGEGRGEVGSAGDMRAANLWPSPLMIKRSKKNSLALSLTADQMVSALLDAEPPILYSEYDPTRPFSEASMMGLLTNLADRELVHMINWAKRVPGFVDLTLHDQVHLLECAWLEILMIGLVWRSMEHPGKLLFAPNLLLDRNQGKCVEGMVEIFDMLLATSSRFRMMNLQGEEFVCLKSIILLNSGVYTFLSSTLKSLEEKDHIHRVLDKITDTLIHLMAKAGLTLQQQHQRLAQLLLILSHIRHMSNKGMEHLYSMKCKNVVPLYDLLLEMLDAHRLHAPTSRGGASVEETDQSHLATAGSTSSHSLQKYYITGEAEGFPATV
Assay: ER reporter gene assay
Type: cell-based
Conditions: 10 μM compound, 5 nM estradiol, 24 h; % of maximal luciferase activity (100%)
Give your result in % as a bare value.

Q. Given the entry CSc1nc2c([nH]1)c(=O)n(C)c(=O)n2C , report its measured Reporter Assay (% Activity) ER.
A. 6

Q. Given the entry CCC(CC)CSc1nc2c([nH]1)c(=S)n(C)c(=O)n2C , report its measured Reporter Assay (% Activity) ER.
A. 54

Q. Given the entry CCc1nc2c([nH]1)c(=O)n(C)c(=O)n2C , report its measured Reporter Assay (% Activity) ER.
A. 106

###

Target: ER (Homo sapiens)
Assay: ER reporter gene assay
Type: cell-based
Conditions: 10 μM compound, 5 nM estradiol, 24 h; % of maximal luciferase activity (100%)
# key: entry, value: Reporter Assay (% Activity) ER

[[record]]
compound = "CCCCc1nc2c([nH]1)c(=O)n(C)c(=O)n2C"
readout = "Reporter Assay (% Activity) ER"
reported = "88%"

[[record]]
compound = "CCCSc1nc2c([nH]1)c(=O)n(C)c(=O)n2C"
readout = "Reporter Assay (% Activity) ER"
reported = "111%"

[[record]]
compound = "CSc1nc2c([nH]1)c(=S)n(C)c(=S)n2C"
readout = "Reporter Assay (% Activity) ER"
reported = "101%"

[[record]]
compound = "CCCCCCCCCCSc1nc2c([nH]1)c(=O)n(C)c(=O)n2C"
readout = "Reporter Assay (% Activity) ER"
reported = "109%"

[[record]]
compound = "CCCC(C)Sc1nc2c([nH]1)c(=S)n(C)c(=O)n2C (centres unmarked)"
readout = "Reporter Assay (% Activity) ER"
reported = "94%"


Q. Given the entry CCCSc1nc2c([nH]1)c(=S)n(C)c(=S)n2C , report its measured Reporter Assay (% Activity) ER.
A. 79%

Q. Given the entry Cn1c(=O)c2[nH]c(Cc3ccccc3)nc2n(C)c1=O , report its measured Reporter Assay (% Activity) ER.
A. 94%

Q. Given the entry Cn1c(=O)c2[nH]c(SCc3ccccc3)nc2n(C)c1=O , report its measured Reporter Assay (% Activity) ER.
A. 104%
